Entry source: paper doi:10.1101/2023.02.14.528391v1

target.entity: UniProtKB Q12809
Sequence (Q12809 whole entry): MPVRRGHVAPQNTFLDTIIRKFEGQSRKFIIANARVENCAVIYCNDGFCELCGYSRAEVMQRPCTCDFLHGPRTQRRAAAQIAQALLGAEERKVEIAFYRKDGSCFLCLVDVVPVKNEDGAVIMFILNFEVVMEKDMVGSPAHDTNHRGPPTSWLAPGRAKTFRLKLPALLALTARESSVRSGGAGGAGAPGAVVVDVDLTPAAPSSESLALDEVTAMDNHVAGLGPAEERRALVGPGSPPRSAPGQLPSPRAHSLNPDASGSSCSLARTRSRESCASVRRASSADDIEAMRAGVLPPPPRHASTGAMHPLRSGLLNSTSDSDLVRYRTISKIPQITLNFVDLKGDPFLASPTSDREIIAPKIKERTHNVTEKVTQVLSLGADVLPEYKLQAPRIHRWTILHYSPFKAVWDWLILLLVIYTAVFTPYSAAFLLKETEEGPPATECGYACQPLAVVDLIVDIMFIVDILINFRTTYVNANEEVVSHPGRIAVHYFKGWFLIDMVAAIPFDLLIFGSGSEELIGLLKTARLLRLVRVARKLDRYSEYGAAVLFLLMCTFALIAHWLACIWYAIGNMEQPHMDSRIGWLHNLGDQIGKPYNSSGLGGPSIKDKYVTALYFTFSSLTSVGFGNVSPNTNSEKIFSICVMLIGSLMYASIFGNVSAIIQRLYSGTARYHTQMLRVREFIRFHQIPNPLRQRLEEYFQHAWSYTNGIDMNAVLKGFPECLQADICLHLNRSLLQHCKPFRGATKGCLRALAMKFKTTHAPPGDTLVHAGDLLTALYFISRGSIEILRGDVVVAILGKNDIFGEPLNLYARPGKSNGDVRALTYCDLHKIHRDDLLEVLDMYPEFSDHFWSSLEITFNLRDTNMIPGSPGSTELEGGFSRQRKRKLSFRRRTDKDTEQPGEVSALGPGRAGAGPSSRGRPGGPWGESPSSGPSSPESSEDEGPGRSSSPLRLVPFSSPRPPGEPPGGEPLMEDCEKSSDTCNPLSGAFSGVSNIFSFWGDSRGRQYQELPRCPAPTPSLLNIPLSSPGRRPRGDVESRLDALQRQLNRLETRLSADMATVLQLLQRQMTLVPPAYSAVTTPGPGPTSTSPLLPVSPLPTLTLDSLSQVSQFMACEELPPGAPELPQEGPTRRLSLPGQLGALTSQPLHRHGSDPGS
experimental.protocol: in vitro
cond: % inhibition
Exercise: state measured inhibition at 10 µM for each of the molecules provided.
Numbers only, in %.

In the examples that follow, each entry is paired with its recorded inhibition at 10 µM.
CN(C)CCn1nc(-c2cncc(Cl)c2)c2ccccc2c1=O [NBI1099473]    86.1
Clc1ccccc1N(CCN1CCOCC1)Cc1cc2ncccc2s1 [s_2230____12297302____16648172]    66
CN(C)CCN(Cc1ccccc1F)C(=O)c1nccc2ncccc12 [s_527____7348186____14775532]    33.1
CN(C)CCN(CCO)Cc1csc(-c2c(Cl)cccc2Cl)n1 [s_2230____15141024____14479640]    9.6
CN(C)CCN(Cc1ccccc1F)c1ncc(Cl)cc1Cl [s_27____7100864____12221638]    86.4
CN(C)CCCN(Cc1ccc(Cl)c(Cl)c1)c1ncc(Cl)cc1[N+](=O)[O-] [s_27____7425384____7556080]    78.8

Give inhibition at 10 µM for each listed item.
1. CN(C)CCN(Cc1cccs1)c1ccncc1Cl [s_27____7100914____16711384]
2. Cc1ccc2c(C(=O)N(CCN(C)C)c3ccccn3)ccnc2c1Cl [s_11____17828754____14179334]
3. CN(C)CCN(Cc1cccc(Cl)c1)c1ncncc1Cl [s_27____7100894____9139880]
4. CN(C)CCN(Cc1cccc(F)c1)Cc1c(Cl)ccc2cccnc12 [s_270004____10206024____8625260]
5. CN(C)CCN(Cc1cccc(Cl)c1)c1cncc(Cl)n1 [s_27____7100894____215633]

1. 49.5
2. 29.9
3. 91.6
4. 97
5. 78.1

Go through the items and report each one's inhibition at 10 µM.
1. CN(C)CCCN(CCCN(C)C)c1ccc2c(Br)ccc(Cl)c2n1 [s_27____6492506____8281582]
2. CN(C)CCCn1nc(-c2ccccn2)c2ccccc2c1=O [GMD_13497]
3. Cc1cc2nc(Cl)nc(N(CCN(C)C)Cc3nccn3C)c2s1 [s_27____16636988____12112620]
4. CN(C)CCN(Cc1ccccc1F)C(=O)c1cccc2cccnc12 [s_11____4836284____101939]
5. CN(C)CCN(Cc1nccn1C)c1nc2cc(Cl)ccc2s1 [s_27____16636988____14057938]
6. CN(C)CCN(Cc1ccccc1)C(=O)N1CCSc2ccncc21 [s_272164____9389444____9363352]
7. CN(C)CCCn1nc(-c2ccccc2)c2ccccc2c1=O [GMD_14496]

1: 69; 2: 33.6; 3: 71.2; 4: 55; 5: 89.1; 6: 31.1; 7: 54.2

// each molecule listed below needs its inhibition at 10 µM
1. CN(CCCN(C)C(=O)c1ccnc2ccsc12)C(=O)c1cncc(Cl)c1
2. CN(C)CCN(Cc1ccccc1F)C(=O)N1CCSc2ncccc21 [s_272164____9389146____17325014]
3. CN(C)CCCn1nc(-c2ccc(Cl)cc2)c2ccccc2c1=O [GMD_12503]
4. CN(C)CCN(Cc1ccccc1F)Cc1c(Cl)ccc2cccnc12 [s_270004____10205940____8625260]

2.59
37.3
72.4
88.9

Working through the 3 molecules below one at a time, give inhibition at 10 µM for each.
1. CN(C)CCN(Cc1ccsc1)C(=O)c1cc2c(Cl)cncc2s1 [s_11____10910498____13033826]
2. CN(C)CCN(Cc1ccc(F)cc1F)C(=O)c1cc(Br)ncc1Cl [s_11____4836304____10207328]
3. CC(=Cc1ccccn1)C(=O)N(CCN(C)C)c1ccccc1 [s_11____2264406____11762612]

[79.5, 28.7, 18.8]

For each of the molecules below, state inhibition at 10 µM.
1. Cc1cccc(CN(CCN(C)C)C(=O)C2=Cc3ccc(Cl)cc3OC2)c1 [s_22____3218898____13770932]
2. CCc1csc(N(CCCN(C)C)Cc2ccc(Cl)c(Cl)c2)n1 [s_27____7425384____12641810]

94.3
86.2

Dear colleague, could you please provide inhibition at 10 µM for the molecules listed below?
1. CN(C)CCN(Cc1ccccc1F)C(=O)N1CCCc2c(Cl)ccnc21 [s_272164____17323936____17325014]
2. CN(C)CCN(Cc1nccn1C)c1cc(C(F)F)nc2ccc(Cl)cc12 [s_27____16636988____10213920]
3. COCCN(CCN(C)C)Cc1c(Cl)cccc1Oc1ccccc1 [s_270004____10206068____8363900]
4. CN(C)CCCN(Cc1ccc(Cl)c(Cl)c1)C(=O)c1nccnc1Cl [s_22____1500308____12360522]
5. CN(C)CCCN(Cc1ccc(Cl)c(Cl)c1)c1cnc2ccccc2n1 [s_27____7425384____262944]
6. CN(C)CCn1nc(-c2ccc(Cl)cc2)c2ccccc2c1=O [NBI1099469]

1: 90.6; 2: 61; 3: 99; 4: 57.7; 5: 93.6; 6: 71.7
